These entries and their values trace back to patent US20020019527A1.

subject-of-test: Farnesyltransferase (FTase) (Bos taurus, UniProt P29702+P49355)
Construct: precipitation from a beef brain homogenate; from tissue; host or cells: bovine brain
assay-text: Farnesyltransferase inhibition (scintillation proximity assay, [3H]-FPP / biotin-K-ras peptide)
Type: biochemical, bovine
particulars: compound at 10^−6 M; bovine FTase, 37° C., 30 minutes
Counter-ions that a name gives are not always drawn.
measurement-label: inhibition at 1 µM
Enter the number, and then the unit.

Supply reported inhibition at 1 µM belonging to this compound: Cn1cncc1C(OCc1cccc(C(F)(F)F)c1)c1ccc(C#N)c(-c2cccc3ccccc23)c1 (stereo not shown) [Example 68, hydrochloride]
100%

Supply reported inhibition at 1 µM belonging to this compound: Cc1ccccc1-c1cc(C(OCc2ccccc2)c2cncn2C)ccc1C#N (stereo not shown) [Example 11, hydrochloride]
94%

Supply reported inhibition at 1 µM belonging to this compound: Cn1cncc1C(OCc1ccc(S(C)(=O)=O)cc1)c1ccc(C#N)c(-c2cccc3ccccc23)c1 (stereo not shown) [Example 73, hydrochloride]
100%

Supply reported inhibition at 1 µM belonging to this compound: Cc1ccccc1-c1cc(CN(Cc2ccccc2)Cc2cccnc2)ccc1C#N [Example 215, hydrochloride]
29%

###

For each record, write down the corresponding inhibition at 1 µM.
subject-of-test: Farnesyltransferase (FTase) (Bos taurus, UniProt P29702+P49355)
Construct: precipitation from a beef brain homogenate; from tissue; host or cells: bovine brain
assay-text: Farnesyltransferase inhibition (scintillation proximity assay, [3H]-FPP / biotin-K-ras peptide)
Assay type: biochemical, bovine
particulars: compound at 10^−6 M; bovine FTase, 37° C., 30 minutes
Where a name gives a salt, the structure may show the parent alone.
Please reply with the bare figure in % and do not write the unit itself.

Supply reported inhibition at 1 µM belonging to this molecule: Cn1cncc1C(OCc1ccc(C(=O)O)cc1)c1ccc(C#N)c(-c2cccc3ccccc23)c1 (stereo not shown)
100

Supply reported inhibition at 1 µM belonging to this molecule: Cc1ccccc1-c1cc(C(OCc2ccc(C(N)=O)cc2)c2cncn2C)ccc1C#N (stereo not shown)
92

Supply reported inhibition at 1 µM belonging to this molecule: Cn1cncc1CN(Cc1ccc(OC(F)(F)F)cc1)Cc1ccc(C#N)c(-c2cccc3ccccc23)c1 [Example 41, dihydrochloride]
100

Supply reported inhibition at 1 µM belonging to this molecule: Cn1cncc1C(OCc1ccc(OC(F)(F)F)cc1)c1ccc(C#N)c(-c2cccc3ccccc23)c1 (stereo not shown) [Example 67, hydrochloride]
100

###

subject-of-test: Farnesyltransferase (FTase) (Bos taurus, UniProt P29702+P49355)
Construct: precipitation from a beef brain homogenate; from tissue; host or cells: bovine brain
assay-text: Farnesyltransferase inhibition (scintillation proximity assay, [3H]-FPP / biotin-K-ras peptide)
Assay type: biochemical, bovine
particulars: compound at 10^−6 M; bovine FTase, 37° C., 30 minutes
Counter-ions that a name gives are not always drawn.
measurement-label: inhibition at 1 µM (%)
Please reply with the bare figure in % and do not write the unit itself.

Supply reported inhibition at 1 µM belonging to this molecule: Cn1cncc1C(OCc1ccccc1)c1ccc(C#N)c(-c2ccccc2Cl)c1 (stereo not drawn) [Example 10, hydrochloride]
94

Supply reported inhibition at 1 µM belonging to this molecule: N#Cc1ccc(COC(c2ccc(C#N)c(-c3cccc4ccccc34)c2)c2cnc[nH]2)cc1 (stereo not drawn) [Example 46, hydrochloride]
100

Supply reported inhibition at 1 µM belonging to this molecule: N#Cc1ccc(N(Cc2ccccc2)Cc2cnc[nH]2)cc1-c1cccc2ccccc12 [Example 265]
100

Supply reported inhibition at 1 µM belonging to this molecule: COc1ccccc1-c1nc(COC(c2ccc(C#N)c(-c3ccccc3C)c2)c2cncn2C)no1 (stereo not drawn) [Example 163, hydrochloride]
84

Supply reported inhibition at 1 µM belonging to this molecule: Cc1cc(COC(c2ccc(C#N)c(-c3ccccc3C)c2)c2cncn2C)c(C#N)cc1C#N (stereo not drawn) [Example 144, hydrochloride]
96

Supply reported inhibition at 1 µM belonging to this molecule: CNC(=O)c1ccc(CNC(c2ccc(C#N)c(-c3cccc4ccccc34)c2)c2cncn2C)cc1 (stereo not drawn) [Example 48, dihydrochloride]
100

Supply reported inhibition at 1 µM belonging to this molecule: Cn1cncc1CN(Cc1ccc(C#N)c(-c2cccc3ccccc23)c1)C(=O)c1ccc(C#N)cc1 [Example 196]
90

Supply reported inhibition at 1 µM belonging to this molecule: Cn1cncc1CN(CCCc1ccccc1)c1ccc(C#N)c(-c2cccc3ccccc23)c1 [Example 230]
100

Supply reported inhibition at 1 µM belonging to this molecule: Cn1cncc1C(OCc1ccc(C#N)cc1)c1ccc(C#N)c(-c2ccccc2C(=O)O)c1 (stereo not drawn) [Example 205]
90

Supply reported inhibition at 1 µM belonging to this molecule: Cn1cncc1C(NCc1ccc(C#N)c(I)c1)c1ccc(C#N)c(-c2cccc3ccccc23)c1 (stereo not drawn) [Example 37, dihydrochloride]
100

Supply reported inhibition at 1 µM belonging to this molecule: Cn1cncc1C(NC1CCN(C(=O)OC(C)(C)C)CC1)c1ccc(C#N)c(-c2cccc3ccccc23)c1 (stereo not drawn) [Example 56]
100

Supply reported inhibition at 1 µM belonging to this molecule: Cc1ccccc1-c1cc(C(OCc2ccc(Cl)cc2[N+](=O)[O-])c2cncn2C)ccc1C#N (stereo not drawn) [Example 164, hydrochloride]
99

Supply reported inhibition at 1 µM belonging to this molecule: Cc1ccccc1-c1cc(N(Cc2ccc(C#N)cc2)Cc2cncn2C)ccc1C#N [Example 229]
100

Supply reported inhibition at 1 µM belonging to this molecule: N#Cc1ccc(CN(CCC2CCCCC2)C(=O)Cn2ccnc2)cc1-c1cccc2ccccc12 [Example 85]
46

Supply reported inhibition at 1 µM belonging to this molecule: Cn1cncc1C(OCc1ccc(C#N)cc1)c1ccc(C#N)c(I)c1 (stereo not drawn) [Example 60, hydrochloride]
96
